Test system: M14 melanoma
Assay: NCI-60 one-dose screen, 48 h (100 = growth as untreated, 0 = no growth, -100 = all killed)
Details: 10 µM unless noted
About 83,000 compounds went through this panel and 20% of them were active in at least one assay; those are over-represented in the sample as a whole.
Record form. Attribute: growth. Fill in for each entry.
Answers are plain numbers, in %.

// worked examples, growth included
N#C/C(=C\c1ccc(Br)cc1)c1cc2ccccc2[nH]1 = 101
CCOC(=O)c1ccc2c(c1)c1c(C)c3ccncc3c(C)c1n2C = -57.2
Cc1ccc2nc(Cl)c(Cn3nnnc3SCc3ccccc3)cc2c1 = 89.3
C=C(CN1CC=CCC1)[C@@H]1CC[C@]2(CO)CC[C@]3(C)[C@H](CC[C@@H]4[C@@]5(C)CC[C@H](O)C(C)(C)[C@@H]5CC[C@]43C)[C@@H]12 = 96.1

Below is a list of compounds. For each, state its recorded growth.
1. COc1ccc2cc(Cn3cc[n+](Cc4ccc5ccccc5c4)c3)ccc2c1
2. COc1ccc(Cc2cnc(NC(=O)c3sc4ccccc4c3Cl)s2)cc1
3. C#Cc1cccc(Nc2nc3ccc([N+](=O)[O-])cc3nc2Nc2cccc(C#C)c2)c1
4. O=C(CCCCl)NNc1nccc(Nc2ccc(S(=O)(=O)Nc3ccncc3)cc2)n1
5. O=C(N/N=C/c1ccc(Cl)cc1Cl)c1ccc2nc(-c3ccc(Cl)cc3)[nH]c2c1
6. CCN1C(=O)N(CC)C2C1NN=c1s/c(=C\c3ccccc3Br)c(=O)n12 (configuration not stated)
7. CN(C)c1ccc(/C=C/C(=O)c2ccc(Nc3nc(Nc4ccc(F)cc4)nc(Nc4ccc(Cl)cc4)n3)cc2)cc1

result:
1. 17.5
2. 10.2
3. -82
4. 97.7
5. 19.7
6. 8.22
7. 54

Below is a list of compounds. For each, state its recorded growth.
1. OC(c1ccccc1)(c1ccccc1)c1ccccc1-c1ccccc1
2. O=C1NC(=O)c2c1c1c3ccccc3[nH]c1c1oc3ccc(F)cc3c21
3. COc1ccc(/C=C/C(=O)c2ccc(NC(=O)CSc3nnc(-c4cc(-c5ccccc5)nc5ccccc45)n3-c3ccccc3)cc2)cc1
4. O=C1C(Cl)=C(NCCN2CCOCC2)C(=O)c2ncccc21
5. CC1(C)CC2=C3C=C[C@@H]4[C@@]5(C)CC[C@H](O)C(C)(C)[C@@H]5CC[C@@]4(C)[C@]3(C)CC[C@@]2(C(=O)O)CC1=O

result:
1. 99.4
2. 45.1
3. 99
4. -85.9
5. 30.3

query: Entry under review: C[Se]C(=O)CC1=C2C=C(F)C=CC2/C(=C\c2ccc(S(C)=O)cc2)C1C (configuration not stated) . Reported growth?
result: 7.44

---

System: MALME-3M melanoma
Experiment: NCI-60 one-dose screen, 48 h
Conditions: 10 µM unless noted
This is part of a sample that, as a whole, favours compounds with a hit. Of some 83,000 tested, about 20% had one in any assay. The source made the active and inactive calls. Rule for the calls: active = growth percent below 10; inactive = the rest.
Return exactly one item of true for active, false for inactive

CCOC(=O)N1CCN(S(=O)(=O)c2oc(-c3ccc(Cl)cc3)nc2C#N)CC1 = false
CCNC(=O)Oc1ccc(/C(=C(/C)Cc2ccc(OC)cc2)c2ccc(OCCN3CCCC3)cc2)cc1 = false

query: Each compound tested received a call. Report the one for Cc1c(Cl)cccc1C(=O)Nc1nc2c(s1)CN(C(=O)Nc1cccc(C(F)(F)F)c1)CC2 .
result: false

query: Each compound tested received a call. Report the one for Cc1cc(N2CCN(C)CC2)nc(NCc2cc(Nc3ccnc4cc(Cl)ccc34)ccc2F)n1 .
result: true

query: Each compound tested received a call. Report the one for O=C(O)CCCc1cnc2c3sccc3nc(SCc3c(Cl)cccc3Cl)n12 .
result: false

query: Each compound tested received a call. Report the one for COC(=O)c1nc(-c2ccccc2)oc1S(=O)(=O)N1CCC(C(N)=O)CC1 .
result: false

---

Test system: T-47D breast
Assay: NCI-60 one-dose screen, 48 h
Details: 10 µM unless noted
This is part of a sample that, as a whole, favours compounds with a hit. Of some 83,000 tested, about 20% had one in any assay. Active and inactive are the calls of the source. Rule for the calls: active = growth percent below 10; inactive = the rest.
Return exactly one item of active, inactive

O=C(N/N=C/c1ccc(O)cc1O)c1ccc(Nc2ccnc(C(F)(F)F)c2)cc1 = active

query: Each compound tested received a call. Report the one for CCN(CC)CCNC(=O)c1ccc(-c2nc3ccc4[nH]ncc4c3c3c2CCCC3)cc1 .
result: inactive

query: Each compound tested received a call. Report the one for O=C(OC[C@@H]1CO1)c1cccc2c(=O)c3ccccc3[nH]c12 .
result: active

---

System: U251 CNS
Assay: NCI-60 one-dose screen, 48 h (100 = growth as untreated, 0 = no growth, -100 = all killed)
Conditions: 10 µM unless noted
About 83,000 compounds went through this panel and 20% of them were active in at least one assay; those are over-represented in the sample as a whole.
readout name: growth (%)
Numbers only, in %.

// worked examples, growth included
CCNC(=O)Oc1ccc(/C(=C(/C)Cc2ccc(OC)cc2)c2ccc(OCCN3CCCCCC3)cc2)cc1 = 45.1
N=c1c2c(=N)n3c(nc2nc2n1-c1ccccc1Sc1ccccc1-2)sc1cc(Cl)ccc13 = 9.17
CCCn1c(=S)sc2c1nc(C)n1c(Nc3ccccc3)nnc21 = 60.9
CC12CCC(/C(=C/NNc3ccc([N+](=O)[O-])cc3[N+](=O)[O-])C1=O)C2(C)C (stereo not given) = 58.4
O=C(NCc1ccc2c(c1)OCO2)NCC1CCCC(CNC(=O)NCc2ccc3c(c2)OCO3)C1 (stereo not given) = 103
N#Cc1nc2c(S(=O)(=O)c3ccccc3)c(N)n(Cc3cccnc3)c2nc1C#N = 75.5

Below is a list of compounds. For each, state its recorded growth.
1. C#CC#CC#CC#CC#CC#CC#CC#CCC1OCC(COC(=O)O[C@@H](C(=O)O[C@H]2C[C@@]3(O)[C@@H](OC(=O)c4ccccc4)[C@@H]4[C@]5(OC(C)=O)CO[C@@H]5C[C@H](O)[C@@]4(C)C(=O)[C@H](OC(C)=O)C(=C2C)C3(C)C)[C@@H](NC(=O)c2ccccc2)c2ccccc2)O1 (stereo not given in full)
2. N#C/C(=C\c1ccc(Br)cc1)c1cc2ccccc2[nH]1
3. C/C(C=O)=C\c1ccc2c(c1)OCO2
4. COc1cc(C(=O)c2c(-c3ccccc3)oc3c(OC)cccc23)cc(OC)c1O
5. COc1cc(/C=N/Nc2ccccc2F)cc(OC)c1OC
6. Cn1c(/C=C/[N+](=O)[O-])cc2ccccc21
7. CCC(C)Nc1ccc(NC(C)CC)cc1 (stereo not given)
8. COc1ccc(-c2cc(C(=O)N3N=C(c4ccc(N)cc4)CC3c3ccccc3)c3ccccc3n2)cc1 (stereo not given)

result:
17.9
95.1
107
18.8
93.3
-72.1
87.9
36.9

---

Test system: DU-145 prostate
Assay: NCI-60 one-dose screen, 48 h (100 = growth as untreated, 0 = no growth, -100 = all killed)
Settings: 10 µM unless noted
Experimental: Cells are grown in 96 well plates and exposed to the test compound for 48 hours. Compounds are tested at a single concentration, which is 10^-5 M for most compounds. The reported endpoint is percent growth (GI% or GIPRCNT), where numbers from 0 - 100% represent growth inhibition, and numbers from -100% - 0 represent cell death. For example, a value of 40 represents 60% growth inhibition. A value of 0 means no net growth occurred over the course of the experiment. […]
The panel holds about 83,000 compounds, 20% with a hit somewhere; the sample as a whole holds those more often.
readout name: growth (%)
One number for each entry, in %.

// worked examples, growth included
CCN(CC)c1ccc(/C=C\c2cc(C)c3cc(C)ccc3n2)cc1 = 61.5
Cn1cc(-c2csc(-c3cn(C)c4ccc(Br)cc34)n2)c2cnccc21 = -88.6
Cn1cc(-c2ccc3cc(-c4ccc(CC(=O)Nc5cc(C(C)(C)C)on5)cc4)cnc3c2)cn1 = 22.1

Below is a list of compounds. For each, state its recorded growth.
1. Cc1ccc(-c2csc(NC(=O)N3CCN(c4cc5c(cc4F)c(=O)c(C(=O)O)cn5C4CC4)CC3)n2)cc1
2. CCCCCCCCCCCCCCCCOC(=O)c1c(C)[nH]c(/C=C2\N=C(c3ccc[nH]3)C=C2OC)c1C
3. Cc1cc(N2CCN(C)CC2)nc(NCc2cc(Nc3ccnc4cc(Cl)ccc34)ccc2F)n1
4. COc1ccc(C2CC(c3ccc(Nc4nc(Nc5ccc(F)cc5)nc(Nc5ccc(F)cc5)n4)cc3)=NN2C(C)=O)cc1 (centres undefined)
5. COc1ccc(/C(C)=C(\c2ccc(OCCN3CCCCCC3)cc2)c2ccc(OC(=O)c3ccccc3)cc2)cc1
6. O=C1/C(=C/c2ccc(Br)cc2)COc2ccc(O)c(O)c21
7. CC[C@H](Nc1nc(N)nc(C)c1C#N)c1nc2cccc(NCCCCCC(=O)NO)c2c(=O)n1-c1ccccc1
8. Clc1nccc2c(-c3csc(-c4c[nH]c5ccccc45)n3)c[nH]c12

result:
16.3
49.3
10.5
115
71.8
6.06
69.5
31.6

Hello, the source for this data is PubChem BioAssay (NCI), in case you need it.
